Source listed as ChEMBL document CHEMBL5360558.

# ASSAY NAME: Acute toxicity in C57BL/6 mouse assessed as survival rate at 20 mg/kg,ip administration observed after 22 days
# Type: organism-based
# SETUP CONDITIONS: in vivo, time 22 day
MEASURE NAME: survival at 528 h (%)
Dear colleague, please return just the value in %, with no unit written.

Lookup: Field request: survival at 528 h | item: O=C1C2=C(C(=O)c3c(O)cccc31)C(c1ccco1)c1sc(=O)[nH]c1S2 (stereo unspecified)
Found: 100

###

# System: Salmon testes DNA
# ASSAY NAME: Displacement of methyl green from salmon sperm DNA assessed as DNA intercalation at 10 uM incubated for 24 hrs by fluorescence plate reader method relative to control
# Assay type: nucleic-acid assay
# SETUP CONDITIONS: Salmo salar
MEASURE NAME: Activity
A complete answer gives the number and then names the unit.

Observe how each entry below is paired with its result.
| MOLECULE | RESULT |
| --- | --- |
| O=C1C2=C(C(=O)c3c(O)cccc31)C(c1ccco1)c1sc(=O)[nH]c1S2 (stereo not drawn) | 44.3% |
| O=C1C2=C(C(=O)c3c(O)cccc31)C(c1ccc(Cl)cc1)c1sc(=O)[nH]c1S2 (stereo not drawn) | 29.5% |
| C/C(=C\c1ccccc1)C1C2=C(Sc3[nH]c(=O)sc31)C(=O)c1cccc(O)c1C2=O (stereo not drawn) | 29.5% |
| O=C1C2=C(C(=O)c3c(O)cccc31)C(c1ccc(Br)cc1)c1sc(=O)[nH]c1S2 (stereo not drawn) | 29.5% |
| COc1ccc(C2C3=C(Sc4[nH]c(=O)sc42)C(=O)c2cccc(O)c2C3=O)cc1 (stereo not drawn) | 29.5% |

Lookup: Field request: Activity | item: O=C1C2=C(C(=O)c3ccccc31)C(c1ccco1)c1sc(=O)[nH]c1S2 (stereo not drawn)
Found: 11.8%

Lookup: Field request: Activity | item: CN(C)c1ccc(C2C3=C(Sc4[nH]c(=O)sc42)C(=O)c2cccc(O)c2C3=O)cc1 (stereo not drawn)
Found: 55.4%

Lookup: Field request: Activity | item: `CC1(C)C2=C(Sc3[nH]c(=O)sc31)C(=O)c1cccc(O)c1C2=O`
Found: 42.5%

###

# ASSAY NAME: Cytotoxicity against mouse J774.2 cells assessed as cell growth inhibition incubated for 72 hrs by MTT assay
# Format: toxicity, cell-based
Please assign 0.0 whenever IC50 at 72 h is at or above 7 µM, and 1.0 whenever it is below.

Illustrative cases are given below, each with its answer.
| MOLECULE | ASSIGNED CATEGORY |
| --- | --- |
| COc1ccc(C2C3=C(Sc4[nH]c(=O)sc42)C(=O)c2cccc(O)c2C3=O)cc1 (centres undefined) | 1.0 |
| O=C1C2=C(C(=O)c3c(O)cccc31)C(/C=C/c1ccccc1)c1sc(=O)[nH]c1S2 (centres undefined) | 0.0 |
| CN(C)c1ccc(C2C3=C(Sc4[nH]c(=O)sc42)C(=O)c2cccc(O)c2C3=O)cc1 (centres undefined) | 0.0 |
| C/C(=C\c1ccccc1)C1C2=C(Sc3[nH]c(=O)sc31)C(=O)c1cccc(O)c1C2=O (centres undefined) | 0.0 |
| O=C1C2=C(C(=O)c3c(O)cccc31)C(c1ccc(Br)cc1)c1sc(=O)[nH]c1S2 (centres undefined) | 1.0 |

Lookup: Problem: For the molecule `O=C1C=CC(=O)c2c(O)cccc21` , is IC50 at 72 h under 7 µM?
Found: 0.0

Lookup: Problem: For the molecule `CC1(C)C2=C(Sc3[nH]c(=O)sc31)C(=O)c1cccc(O)c1C2=O` , is IC50 at 72 h under 7 µM?
Found: 0.0

Lookup: Problem: For the molecule O=C1C2=C(C(=O)c3c(O)cccc31)C(c1ccco1)c1sc(=O)[nH]c1S2 (centres undefined) , is IC50 at 72 h under 7 µM?
Found: 1.0

Lookup: Problem: For the molecule O=C1C2=C(C(=O)c3ccccc31)C(c1ccco1)c1sc(=O)[nH]c1S2 (centres undefined) , is IC50 at 72 h under 7 µM?
Found: 1.0
